molecular target: HLA-DR1 molecules (Homo sapiens, UniProt P01903+P01911, A100R/D57E/F55L/F60I/F76Y/I96L/L162R/M171V/P40L/Q125E/R42F/V115G/Y59C); construct: The HLA-DR alpha gene was truncated after Asn^192 to remove transmembranal and cytoplasmic regions from the protein product; A gene coding for the HLA-DR1 beta chain was truncated after position Lys^198, again to delete the transmembranal region; made in house; host or cells: insect cell line printed as HS / H5 (Invitrogen), co-infected with two baculoviruses; concentrated culture supernatant captured on 12CA5 antibody; experiment: binding of biotin-labeled hMBP(90-102) to "empty" HLA-DR1 (assay IV); conditions: Table 39; AE101 series compound 64 μM; biotin-labeled hMBP(90-102) 50 μM, 37° C., 1 h; no enhancement = 1
OUTCOME MEASURE: Relative Enhancement
Note: the reply should be a number with no unit written.

> print(dat)
                                  substance  recorded.result
1                  YRMKLPKSAKPVSQMR [AE101]             2.66
2                      YRMKLPKSAKPV [AE107]             2.59
3  Ac-LR L KLPK-NH2 (Ac-LRLKLPK-NH2; not fully specified; printed as Ac-LR L KLPK-NH2) [AE206]             2.57
4  AE405: comprising residue positions 5 through 12 of AE101 (LPKSAKPV)             0.43

Asked: For the substance AE402 (LRMKLPKPPKPV) , report Relative Enhancement.
Given back: 0.33

The origin of these recorded values is patent US6835382B2.
